B1: HDV Ribozyme (parent)
chain: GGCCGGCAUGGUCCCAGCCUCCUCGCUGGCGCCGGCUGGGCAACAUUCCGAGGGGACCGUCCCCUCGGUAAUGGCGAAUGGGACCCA

- Variants of: B1
- Protocol summary: self-cleavage, relative activity (ratio to wild type); higher = more cleavage; co-transcriptional
Overview of recorded self-cleavage for various variants
Please give the numeric answer without any surrounding text.

Item sequence	Measurement type	Assay value
GGCCGGCAUGGUCCCAGCCUCCUCGCUGCCGCCGGCUGGGCAACAUUCCGAGAGGACCGUCCCCUCGGUAAUGGCGAAUGGGACCCA [G29C G53A]	self-cleavage	0.133
GGCCGGCAUGGUCCCAGCCUCCUCGCUCGCGCCGGCUGGGCAACAUUCCGAGGGGACCGUCCUCUCGGUAAUGGCGAAUGGGACCCA [G28C C63U]	self-cleavage	0.0369
GGCCGGCAUGGUCCCAGCCUCCUCGCUGGCGCCGGCCGGGCAAGAUUCCGAGGGGACCGUCCCCUCGGUAAUGGCGAAUGGGACCCA [U37C C44G]	self-cleavage	0.63
GGCCGGCAUGGUCCCAGCCUCCUCGCUGGCGCCGGCUGGGCAACAGUCCGAGGGGAACGUCCCCUCGGUAAUGGCGAAUGGGACCCA [U46G C57A]	self-cleavage	0.635
GGCCGGCAUGGUCCCAGCCUCGUCGCUGGCGCCGGCUGGGCAACAUUCCGAGGGGACCGUCCCAUCGGUAAUGGCGAAUGGGACCCA [C22G C64A]	self-cleavage	0.125
GGCCGGCAUGGUCCCAACCUCCUCGCUGGCGCCGGCUGGGCAACAUUCCGAGCGGACCGUCCCCUCGGUAAUGGCGAAUGGGACCCA [G17A G53C]	self-cleavage	0.831
GGCAGGCAUGGUCCCAGCCUCCUCGCUGGCGCCGGCUGGGCAACAUUCCGAGGCGACCGUCCCCUCGGUAAUGGCGAAUGGGACCCA [C4A G54C]	self-cleavage	0.284
GGACGGCAUGGUCCCAGCCUCCUCGCUGGCGCCGGCUGGGCAAUAUUCCGAGGGGACCGUCCCCUCGGUAAUGGCGAAUGGGACCCA [C3A C44U]	self-cleavage	0.145

So for GGCCGGCAUGGUCCCAGCCUCCUCGUUGGCGCCGGCUGGGCAACAUUCCGAGGGGACCGUCCCCUCGGUAAUGGCGAUUGGGACCCA [C26U A78U] , the logged self-cleavage turned out to be 0.743

So for GGCCGGCAUGGUCCCAGCCUCCUCGCUGGCGCCGGCUGGGCAACGUUCCGAGGGGACGGUCCCCUCGGUAAUGGCGAAUGGGACCCA [A45G C58G] , the logged self-cleavage turned out to be 1.14

So for GGCCGGCAUGGUCCCAGCCUCCUCACUGGCGCCGGCUGGGCAACAUUCCGAGGGGACCGUCCCCUCGGUAAUGUCGAAUGGGACCCA [G25A G74U] , the logged self-cleavage turned out to be 0.0583

So for GGCCGGCAUGGUCCCAGCCUCCUCGCUGGCGCCGGCUGGGCAACAUUCCGAGGGGACCGUACACUCGGUAAUGGCGAAUGGGACCCA [C61A C63A] , the logged self-cleavage turned out to be 0.689
